- target of assay: recombinant Motavizumab human IgE (rMota-hIgE) (human) (UniProt P01854)
- Sequence (P01854 other isoform, or with tags, fused parts or gaps limits assumed, form in doubt): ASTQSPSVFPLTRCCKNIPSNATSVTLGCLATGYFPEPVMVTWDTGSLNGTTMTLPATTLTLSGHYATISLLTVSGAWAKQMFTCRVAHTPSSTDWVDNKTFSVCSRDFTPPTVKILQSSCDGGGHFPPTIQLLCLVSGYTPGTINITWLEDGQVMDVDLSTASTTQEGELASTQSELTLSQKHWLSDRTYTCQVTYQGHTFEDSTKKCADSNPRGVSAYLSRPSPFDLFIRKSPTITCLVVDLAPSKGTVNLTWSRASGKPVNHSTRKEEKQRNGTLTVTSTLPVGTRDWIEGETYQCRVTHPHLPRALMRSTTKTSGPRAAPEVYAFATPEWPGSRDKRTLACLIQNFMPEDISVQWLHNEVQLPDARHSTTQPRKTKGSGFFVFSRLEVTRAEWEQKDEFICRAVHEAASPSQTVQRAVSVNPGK
- method: hIgE binding ELISA
Would you kindly list Ratio OD450 pH 7.4/pH 6 for each of these binders?
Numbers only.

Illustrative cases are given below, each with its answer.
{"columns": ["binder", "reading"],
 "data": [
  ["CL-2C mAb 7 (antibody, V domains shown) VH: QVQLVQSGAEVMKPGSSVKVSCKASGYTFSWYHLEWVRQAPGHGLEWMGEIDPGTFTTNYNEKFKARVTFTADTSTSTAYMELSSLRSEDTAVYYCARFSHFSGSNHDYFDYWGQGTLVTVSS VL: EIVMTQSPATLSVSPGERATLSCRASQSIGTNIHWYQQKPGQAPRLLIYHASESISGIPARFSGSGSGTEFTLTISSLQSEDFAVYYCHQSDSWPTTFGGGTKVEIK", 1.43],
  ["CL-2C mAb 20 (antibody, V domains shown) VH: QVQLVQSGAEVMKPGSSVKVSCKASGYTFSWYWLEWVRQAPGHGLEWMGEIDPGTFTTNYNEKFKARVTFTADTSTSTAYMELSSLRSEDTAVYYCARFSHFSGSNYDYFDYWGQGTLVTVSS VL: EIVMTQSPATLSVSPGERATLSCRASQSIGTNIHWYQQKPGQAPRLLIYHASESISGIPARFSGSGSGTEFTLTISSLQSEDFAVYYCQQSDSHPTTFGGGTKVEIK", 5.46]
]}

Please turn your attention to the following entry.
Request: Assign Ratio OD450 pH 7.4/pH 6 to the following record: CL-2C mAb 35 (antibody, V domains shown) VH: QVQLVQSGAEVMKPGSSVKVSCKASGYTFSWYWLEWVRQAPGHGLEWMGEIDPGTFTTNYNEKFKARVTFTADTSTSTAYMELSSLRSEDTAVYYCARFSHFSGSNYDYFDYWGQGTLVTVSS VL: EIVMTQSPATLSVSPGERATLSCRASQSIGTNIHWYQQKPGQAPRLLIYYASESISGIPARFSGSGSGTEFTLTISSLQSEDFAVYYCQQSWSHPTTFGGGTKVEIK
Response: 0.69
